Method: Pharmacokinetics in healthy subjects (Phase 1)
Conditions: human, plasma, po
Where a name gives a salt, the structure may show the parent alone.
Parameter: Tmax

Problem: I would be grateful if you could share the reported Tmax for Cc1nc2c([nH]1)-c1ccccc1N(C(=O)c1ccc(NC(=O)c3ccccc3-c3ccccc3)cc1)CC2 [YM087, hydrochloride] .
Solution: ~1 h

* * *

Method: Pharmacokinetics in healthy subjects (Phase 1)
Conditions: human, plasma, oral
Structures can show the parent of a compound that is named as a salt.
Parameter: bioavailability

Problem: I would be grateful if you could share the reported bioavailability for Cc1nc2c([nH]1)-c1ccccc1N(C(=O)c1ccc(NC(=O)c3ccccc3-c3ccccc3)cc1)CC2 [YM087, hydrochloride] .
Solution: 43 to 59%
